Tested on: Cotton Aphid (Aphis gossypii)
Experiment: Cotton aphid (Aphis gossypii) cotyledon dip test, mortality
Type: in vivo
Conditions: 120 h, cotton cotyledons dipped, mortality counts after 5 days, read-out: mortality in comparison with untreated controls
assay.metric: mortality at 300 ppm

Solved entries (count: 2):
> print(dat)
                                   molecule          assay.metric  reported.value
1  C#CCN(C)C1=NS(=O)(=O)c2cccc(OC(F)F)c21 [Compound 39]  mortality at 300 ppm           > 86%
2  CCCN(C)C1=NS(=O)(=O)c2cccc(Cl)c21 [Compound 19]  mortality at 300 ppm           > 86%

Alright, here's another molecule for you.
Prompt line: Give recorded mortality at 300 ppm with Cotton Aphid (Aphis gossypii) for the following molecule: CCON(C1=NS(=O)(=O)c2cccc(OC(F)F)c21)C(C)C [Compound 111]
Response line: > 86%

---

Measured mortality at 300 ppm, listed per entry for reference.
Tested on: Green Peach Aphid (Myzus Persicae)
Assay: Green peach aphid (Myzus persicae) pepper leaf dip test, mortality
Type: in vivo
Conditions: foliar, 120 h, pepper plant leaves dipped, aphid mortality after 5 days, read-out: mortality in comparison with untreated controls

Observe how each entry below is paired with its result.
> print(dat)
                                 smiles  reported.value
1  CCN(C1=NS(=O)(=O)c2cccc(OC)c21)C(C)C           > 86%
2               CCN(C)c1nsc2cccc(Cl)c12           > 86%
3              CCN(CC)c1nsc2cccc(OC)c12           > 86%

Prompt line: # get_value(readout='mortality at 300 ppm', item= `CCCN(CC1CC1)C1=NS(=O)(=O)c2cccc(F)c21` )
Response line: > 86%

Prompt line: # input compound: `CCN(CC)C1=NS(=O)(=O)c2c(F)ccc(OC)c21` ; wanted: its mortality at 300 ppm
Response line: > 86%

Prompt line: Recorded mortality at 300 ppm for `CCN(C)C1=NS(=O)(=O)c2cccc(Cl)c21` , please?
Response line: > 86%

Prompt line: Please give the measured mortality at 300 ppm for this compound: `C#CCN(C1=NS(=O)(=O)c2cccc(OC(F)F)c21)C(C)C`
Response line: > 86%
